Recorded Emax values for a group of molecules are listed next.
target: 5-HT2C (Homo sapiens, UniProt P28335)
Sequence (P28335 33-458): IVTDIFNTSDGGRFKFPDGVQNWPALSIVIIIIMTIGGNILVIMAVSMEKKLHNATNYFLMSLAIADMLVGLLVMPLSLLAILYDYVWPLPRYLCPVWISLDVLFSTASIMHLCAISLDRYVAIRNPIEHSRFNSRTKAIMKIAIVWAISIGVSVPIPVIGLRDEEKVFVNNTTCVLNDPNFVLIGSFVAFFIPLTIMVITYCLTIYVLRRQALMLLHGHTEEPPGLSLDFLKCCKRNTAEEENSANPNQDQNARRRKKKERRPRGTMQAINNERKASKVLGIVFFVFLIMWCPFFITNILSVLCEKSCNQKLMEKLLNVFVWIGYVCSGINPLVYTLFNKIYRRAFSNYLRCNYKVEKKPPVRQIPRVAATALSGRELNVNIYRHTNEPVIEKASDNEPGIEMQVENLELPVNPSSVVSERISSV
experiment-summary: cell-based
Design: expressed in transfected cells; host or cells: HEK293T
experimental-context: read-out: % efficacy vs 5-HT@ 100%, 5-HT2C
Structures can show the parent of a compound that is named as a salt.
Provide only the numeric value, understood in %.

molecule	Emax (%)
CCN(C)CCc1cn(C)c2cccc(O)c12 [Example 12, hydrochloride]	84
COc1ccccc1CN(C)CCc1cn(C)c2cccc(O)c12 [Example 25, hydrochloride]	70
CCCn1cc(CCN(C)C)c2c(O)cccc21	67
CN(C)CCc1cn(C)c2cccc(O)c12	92
CC(C)N(CCc1cn(C)c2cccc(O)c12)C(C)C [Example 14, hydrochloride]	98
COc1ccccc1CNCCc1cn(C)c2cccc(O)c12 [Example 24, hydrochloride]	115
CN(CCc1cn(C)c2cccc(O)c12)CC1CC1 [Example 16, hydrochloride]	54

Exam item: Tell me its Emax given "CN(C)CCc1cn(C2CCC2)c2cccc(O)c12" as the entry.
Marked response: 44

---

target: UniProt:P28223
experiment-summary: 5-HT2 Gq-Dissociation BRET assay
Format: cell-based
Set-up: expressed in transfected cells; host or cells: HEK293T
experimental-context: read-out: % efficacy vs 5-HT@ 100%, 5-HT2A
Structures can show the parent of a compound that is named as a salt.
Tick yes (1) if Emax is 80% or greater. Tick no (0) if Emax is less than 80%.

Solved cases (4 shown):
compound	target	qualitative-label
CN(C)CCc1cn(C2COC2)c2cccc(O)c12 [Example 10]	UniProt:P28223	no (0)
CC(C)N(CCc1cn(C)c2cccc(O)c12)C(C)C [Example 14, hydrochloride]	UniProt:P28223	yes (1)
CN(C)CCc1cn(CC(F)F)c2cccc(O)c12 [Example 3]	UniProt:P28223	no (0)
CC(C)N(C)CCc1cn(C)c2cccc(O)c12 [Example 13, hydrochloride]	UniProt:P28223	yes (1)

Exam item: API: above_or_equal(metric=Emax, cutoff=80%) for item COc1ccccc1CNCCc1cn(C)c2cccc(O)c12 [Example 24, hydrochloride]
Marked response: yes (1)

Exam item: API: above_or_equal(metric=Emax, cutoff=80%) for item CN(C)CCc1cn(C)c2cccc(O)c12 [Example 1]
Marked response: no (0)

Exam item: API: above_or_equal(metric=Emax, cutoff=80%) for item CN(CCc1cn(C)c2cccc(O)c12)CC(F)F [Example 17, hydrochloride]
Marked response: no (0)

---

target: 5-HT2B (Homo sapiens, UniProt P41595)
Sequence (P41595 whole entry): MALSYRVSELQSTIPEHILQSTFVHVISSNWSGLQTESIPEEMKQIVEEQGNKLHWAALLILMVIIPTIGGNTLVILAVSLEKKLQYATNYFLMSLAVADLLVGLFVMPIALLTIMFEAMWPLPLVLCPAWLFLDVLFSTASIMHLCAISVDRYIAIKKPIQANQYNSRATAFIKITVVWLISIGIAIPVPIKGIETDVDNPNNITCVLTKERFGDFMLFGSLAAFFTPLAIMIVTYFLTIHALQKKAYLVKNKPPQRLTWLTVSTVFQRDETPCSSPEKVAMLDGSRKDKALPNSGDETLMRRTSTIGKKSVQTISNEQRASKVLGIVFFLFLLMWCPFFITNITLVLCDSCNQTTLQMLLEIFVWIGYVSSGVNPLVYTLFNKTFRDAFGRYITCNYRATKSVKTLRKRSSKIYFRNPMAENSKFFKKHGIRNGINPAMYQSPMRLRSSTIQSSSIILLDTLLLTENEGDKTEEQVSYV
experiment-summary: cell-based
Format: cell-based
Design: expressed in transfected cells; host or cells: HEK293T
experimental-context: Not Active
metric: 5-HT2 Gq Dissociation BRET assay, 5-HT2B, activity class

Solved entries (count: 4):
1. CN(C)CCc1cn(CC(F)F)c2cccc(O)c12 Not Active
2. CCCn1cc(CCN(C)C)c2c(O)cccc21 Not Active
3. CN(C)CCc1cn(CC2CC2)c2cccc(O)c12 Not Active
4. CN(C)CCc1cn(C2COC2)c2cccc(O)c12 Not Active

Next up:
Exam item: Identify measured 5-HT2 Gq Dissociation BRET assay, 5-HT2B, activity class obtained with 5-HT2B (Homo sapiens, UniProt P41595) for "CN(C)CCc1cn(C2CCC2)c2cccc(O)c12" .
Marked response: Not Active

---

target: 5-HT2B (Homo sapiens)
experiment-summary: cell-based
Assay type: cell-based
Design: expressed in transfected cells; host or cells: HEK293T
experimental-context: 1 h, read-out: % efficacy vs 5-HT@ 100%, 5-HT2B
Counter-ions that a name gives are not always drawn.
metric: Emax (%)
Provide only the numeric value, understood in %.

compound	metric	test-result
COc1ccccc1CNCCc1cn(C)c2cccc(O)c12 [Example 24, hydrochloride]	Emax	56
COc1ccccc1CN(C)CCc1cn(C)c2cccc(O)c12 [Example 25, hydrochloride]	Emax	14
Cn1cc(CCNCC(F)F)c2c(O)cccc21 [Example 22, hydrochloride]	Emax	75
CCN(C)CCc1cn(C)c2cccc(O)c12 [Example 12, hydrochloride]	Emax	44
CC(C)N(CCc1cn(C)c2cccc(O)c12)C(C)C [Example 14, hydrochloride]	Emax	68

Next up:
Exam item: Identify measured Emax obtained with 5-HT2B (Homo sapiens) for CC(C)N(C)CCc1cn(C)c2cccc(O)c12 [Example 13, hydrochloride] .
Marked response: 83

---

target: 5-HT2A (Homo sapiens)
Sequence (P28223 whole entry): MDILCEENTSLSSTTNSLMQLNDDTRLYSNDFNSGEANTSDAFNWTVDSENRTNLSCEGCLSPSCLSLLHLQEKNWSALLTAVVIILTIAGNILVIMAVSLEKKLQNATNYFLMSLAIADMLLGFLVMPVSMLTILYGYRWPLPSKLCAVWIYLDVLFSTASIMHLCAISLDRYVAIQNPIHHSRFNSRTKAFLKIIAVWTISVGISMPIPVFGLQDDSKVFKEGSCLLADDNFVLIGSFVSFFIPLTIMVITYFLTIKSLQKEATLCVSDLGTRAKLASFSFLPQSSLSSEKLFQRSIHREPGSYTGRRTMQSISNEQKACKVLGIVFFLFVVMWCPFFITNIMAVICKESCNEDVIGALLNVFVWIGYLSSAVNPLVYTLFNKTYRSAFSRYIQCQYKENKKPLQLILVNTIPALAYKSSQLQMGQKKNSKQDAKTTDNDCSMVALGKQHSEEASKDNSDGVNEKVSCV
experiment-summary: 5-HT2 Gq-Dissociation BRET assay
experimental-context: found by the inventors; read-out: potency at 5-HT2A receptors
pEC50: −log10 of the molar value.
metric: pEC50

Exam item: Tell me its pEC50 given CN(C)CCc1cn(C)c2cccc(O)c12 [Example 1, reference compound] as the entry.
Marked response: ~7.07

---

target: 5-HT2A (Homo sapiens)
experiment-summary: 5-HT2 Gq-Dissociation BRET assay
Format: cell-based
Parameters: expressed in transfected cells; host or cells: HEK293T
experimental-context: read-out: % efficacy vs 5-HT@ 100%, 5-HT2A
Structures can show the parent of a compound that is named as a salt.
metric: Emax
Could you write the number and then its unit?

Solved entries (count: 2):
molecule	Emax
COc1ccccc1CN(C)CCc1cn(C)c2cccc(O)c12 [Example 25, hydrochloride]	39%
CCN(CC)CCc1cn(C)c2cccc(O)c12 [Example 18, hydrochloride]	60%

Exam item: Tell me its Emax given Cn1cc(CCNCC2CC2)c2c(O)cccc21 [Example 21, hydrochloride] as the entry.
Marked response: 61%

---

target: 5-HT2C (Homo sapiens)
Sequence (P28335 33-458): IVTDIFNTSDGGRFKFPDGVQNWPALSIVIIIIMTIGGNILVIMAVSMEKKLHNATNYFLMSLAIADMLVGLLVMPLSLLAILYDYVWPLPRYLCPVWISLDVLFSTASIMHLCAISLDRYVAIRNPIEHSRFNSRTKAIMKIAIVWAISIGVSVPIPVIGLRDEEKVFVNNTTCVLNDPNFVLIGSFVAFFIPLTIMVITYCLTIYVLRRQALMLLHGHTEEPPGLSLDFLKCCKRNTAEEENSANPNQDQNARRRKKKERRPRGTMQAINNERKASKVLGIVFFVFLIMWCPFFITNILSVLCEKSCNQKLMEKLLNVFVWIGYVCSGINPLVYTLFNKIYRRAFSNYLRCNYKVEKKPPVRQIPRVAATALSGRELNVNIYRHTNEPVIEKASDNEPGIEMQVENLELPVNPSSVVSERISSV
experiment-summary: cell-based
Parameters: expressed in transfected cells; host or cells: HEK293T
experimental-context: HEK293T cells, 1 hour at 37° C.; read-out: IC50 nM 5-HT2 Gq Dissociation BRET assay, 5-HT2C
Structures can show the parent of a compound that is named as a salt.
Recorded IC50 values for a group of compounds are listed next.
Provide only the numeric value, understood in nM.

compound	target	measurement-unit	IC50
CN(C)CCc1cn(CC(F)F)c2cccc(O)c12	5-HT2C (Homo sapiens)	nM	2.7
CN(CCc1cn(C)c2cccc(O)c12)CC1CC1 [Example 16, hydrochloride]	5-HT2C (Homo sapiens)	nM	14.9
COc1ccccc1CN(C)CCc1cn(C)c2cccc(O)c12 [Example 25, hydrochloride]	5-HT2C (Homo sapiens)	nM	2.4
CN(C)CCc1cn(C2CCC2)c2cccc(O)c12	5-HT2C (Homo sapiens)	nM	3

Next up:
Exam item: Tell me its IC50 given CC(C)N(C)CCc1cn(C)c2cccc(O)c12 [Example 13, hydrochloride] as the entry.
Marked response: 63.5
